These data points were gathered from patent US20220025021A1.

neutralization IC50 reference
Target: HIV-1 Env of pseudovirus BB1012-11.TC21 (HIV-1)
Assay: cell-based or functional assay

binder="MS-85 (antibody, V domains shown) VH: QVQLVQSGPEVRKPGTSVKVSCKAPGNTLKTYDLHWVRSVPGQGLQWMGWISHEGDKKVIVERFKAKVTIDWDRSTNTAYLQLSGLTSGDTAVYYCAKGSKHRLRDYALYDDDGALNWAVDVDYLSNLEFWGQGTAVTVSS VL: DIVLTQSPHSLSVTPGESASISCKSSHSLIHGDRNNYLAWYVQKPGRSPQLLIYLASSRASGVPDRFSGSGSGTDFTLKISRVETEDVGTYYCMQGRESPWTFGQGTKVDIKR" observation_type="neutralization IC50" result="0.028 µg/mL"

Turning now to a further record.
neutralization IC50 recorded for this binder, MS-76 (antibody, V domains shown) VH: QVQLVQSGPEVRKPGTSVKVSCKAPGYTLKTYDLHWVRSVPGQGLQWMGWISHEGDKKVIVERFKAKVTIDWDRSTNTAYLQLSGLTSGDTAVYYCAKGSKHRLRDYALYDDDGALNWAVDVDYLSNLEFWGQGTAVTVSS VL: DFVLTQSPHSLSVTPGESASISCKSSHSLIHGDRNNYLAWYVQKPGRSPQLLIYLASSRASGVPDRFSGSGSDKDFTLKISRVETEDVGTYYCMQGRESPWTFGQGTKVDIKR , is 0.013 µg/mL
